# experimental target: Solute carrier organic anion transporter family member 1B3 (Homo sapiens, UniProt Q9NPD5)
# Sequence (Q9NPD5 whole entry): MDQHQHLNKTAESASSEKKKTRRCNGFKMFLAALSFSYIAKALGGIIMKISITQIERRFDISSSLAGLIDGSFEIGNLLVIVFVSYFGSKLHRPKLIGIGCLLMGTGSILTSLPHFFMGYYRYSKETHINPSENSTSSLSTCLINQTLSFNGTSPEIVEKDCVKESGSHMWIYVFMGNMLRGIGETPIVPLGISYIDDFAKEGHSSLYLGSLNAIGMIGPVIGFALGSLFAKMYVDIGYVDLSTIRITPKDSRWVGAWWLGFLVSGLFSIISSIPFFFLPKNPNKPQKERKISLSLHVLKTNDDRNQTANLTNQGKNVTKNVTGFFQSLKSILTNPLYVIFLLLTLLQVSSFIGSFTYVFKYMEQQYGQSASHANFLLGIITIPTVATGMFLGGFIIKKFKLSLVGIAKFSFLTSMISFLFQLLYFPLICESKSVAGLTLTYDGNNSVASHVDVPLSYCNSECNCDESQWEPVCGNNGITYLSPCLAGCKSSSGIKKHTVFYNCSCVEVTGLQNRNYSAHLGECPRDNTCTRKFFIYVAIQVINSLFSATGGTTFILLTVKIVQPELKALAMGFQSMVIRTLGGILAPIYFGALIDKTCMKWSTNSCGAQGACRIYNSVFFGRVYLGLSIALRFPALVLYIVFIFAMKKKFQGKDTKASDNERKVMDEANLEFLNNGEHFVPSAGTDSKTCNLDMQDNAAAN
# condition context: chinese hamster, cho, 10 µM
measurement name: residual activity (%)
State the answer as a number, implicitly in %.

Some solved entries appear below for comparison.
NC(=O)C[S+]([O-])C(c1ccccc1)c1ccccc1 (stereo unspecified) :: 95.61
CC1=C2C(O)C(=O)OC3CC4C(C)(C)C(=O)C=C[C@]4(C)C(CC1)[C@]23C (stereo partly specified) :: 83.06
CC(C)[C@H]1CC[C@H](C(=O)N[C@H](Cc2ccccc2)C(=O)O)CC1 [NATEGLINIDE] :: 70.33
CCN(CC)CCCC(C)Nc1c2ccc(Cl)cc2nc2ccc(OC)cc12.Cl.Cl.O.O (stereo unspecified) [QUINACRINE HYDROCHLORIDE] :: 95.69
CO[C@H]1/C=C/O[C@@]2(C)Oc3c(C)c(O)c4c(O)c(c5c(nc6cc(C)ccn65)c4c3C2=O)NC(=O)/C(C)=C\C=C\[C@H](C)[C@H](O)[C@@H](C)[C@@H](O)[C@@H](C)[C@H](OC(C)=O)[C@@H]1C :: 81.07
COc1ccc(-c2oc3cc(O[C@@H]4O[C@H](CO)[C@@H](O)[C@H](O)[C@H]4O)c(OC)c(O)c3c(=O)c2OC)cc1O :: 91.7
C[C@H]1O[C@@H](O[C@H]2[C@@H](O)C[C@H](O[C@H]3[C@@H](O)C[C@H](O[C@H]4CC[C@@]5(C)[C@H](CC[C@@H]6[C@@H]5CC[C@]5(C)[C@@H](C7=CC(=O)OC7)[C@@H](O)C[C@]65O)C4)O[C@@H]3C)O[C@@H]2C)C[C@H](O)[C@@H]1O :: 102.2
CC(=O)Oc1cccc(C(=O)O)c1OC(C)=O :: 102.1
CC(=O)O[C@]1(C(C)=O)CC[C@H]2[C@@H]3C[C@H](C)C4=CC(=O)CC[C@]4(C)[C@H]3CC[C@@]21C [MEDROXYPROGESTERONE ACETATE] :: 104.4
CC(=O)Nc1c(I)cc(I)c(C(=O)O)c1I :: 98.63

-- ask Sample `CC(=O)Nc1cccc(O)c1` — what was its residual activity?
-- reply 79.17

-- ask Then this molecule: `O=C(O)c1cccnc1C(=O)O`
-- reply 104.2

-- ask Then this molecule: `N#Cc1c(Cl)cccc1Cl`
-- reply 97.91

-- ask Then this molecule: `COc1c(OC)c2occc2c2oc(=O)ccc12`
-- reply 103.2

-- ask Then this molecule: `C[C@]12CC[C@H]3C(=CCc4cc(O)ccc43)[C@@H]1CCC2=O`
-- reply 96.05

-- ask Then this molecule: `Cc1nccc2c1[nH]c1ccccc12`
-- reply 99.56
